Notes on Ki obtained with human H3 receptor (Homo sapiens, UniProt Q9Y5N1).
Sequence (Q9Y5N1 whole entry): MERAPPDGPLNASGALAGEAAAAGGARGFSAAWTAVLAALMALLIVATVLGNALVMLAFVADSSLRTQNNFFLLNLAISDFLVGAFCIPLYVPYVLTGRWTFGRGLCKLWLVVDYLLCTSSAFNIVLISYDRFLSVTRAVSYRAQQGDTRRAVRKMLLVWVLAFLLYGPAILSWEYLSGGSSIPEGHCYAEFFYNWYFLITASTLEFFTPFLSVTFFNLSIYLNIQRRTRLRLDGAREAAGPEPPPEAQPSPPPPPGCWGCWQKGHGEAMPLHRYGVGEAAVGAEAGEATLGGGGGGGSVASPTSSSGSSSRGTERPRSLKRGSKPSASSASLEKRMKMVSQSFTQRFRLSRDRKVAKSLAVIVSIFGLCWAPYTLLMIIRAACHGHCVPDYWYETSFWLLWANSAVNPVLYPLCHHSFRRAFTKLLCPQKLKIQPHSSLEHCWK
Number only, in nM; omit the unit.

Challenge: Need Ki, item COc1ccc(C2CN(C)Cc3cc(OCC(F)CN4CCC(F)CC4)ccc32)cc1 (centres unmarked) [Example 43]
Response given: 18

Challenge: Please look up its Ki: COc1ccc(C2CN(C)Cc3cc(OC[C@H]4CN(C5CC5)CCO4)ccc32)cc1 (mixture of isomers) [Example 261]
Response given: 62

Challenge: Give the measured Ki of CCCN1CCC(Oc2ccc3c(c2)CN(C)CC3c2cccc(OC)c2)CC1 (centres unmarked) [Example 102] .
Response given: 2

Challenge: Look up Ki: COc1ccc(C2CN(C)Cc3cc(OCC4CCN(C5CCCC5)CC4)ccc32)cc1 (centres unmarked) [Example 86]
Response given: 11

Challenge: For the compound shown here, CN1Cc2cc(OCCCN3CCC(F)CC3)ccc2C(c2cc(Cl)cc(Cl)c2)C1 (centres unmarked) [Example 56] , give the reported Ki.
Response given: 20

Challenge: # Ki lookup, item COc1ccc(C2CN(C)Cc3cc(OCCCNC(C4CC4)C4CC4)ccc32)cc1 (centres unmarked) [Example 131]
Response given: 85

Challenge: Field request: Ki | item: COc1ccc(C2CN(C)Cc3cc(C#CCCN4CCC(F)(F)CC4)ccc32)cc1 (centres unmarked) [Example 274]
Response given: 65

Challenge: Field request: Ki | item: COc1ccc(C2CN(C)Cc3cc(OCCCN4CCC(F)CC4)ccc32)cc1F (racemic) [Example 142]
Response given: 3

----------
target: Rat SERT (Rattus norvegicus, UniProt P31652); construct: A rat brain without cerebellum (Zivic Laboratories, Inc.—Pittsburgh, Pa.) was homogenized; tissue Zivic Laboratories, Inc; host or cells: rat brain without cerebellum, membranes; assay: Rat brain SERT binding ([3H]-citalopram displacement); details: rat brain membranes without cerebellum, 0.6 nM [3H]-citalopram, 60 min at 25° C.; read-out: Rat SERT Ki
Sequence (P31652 whole entry): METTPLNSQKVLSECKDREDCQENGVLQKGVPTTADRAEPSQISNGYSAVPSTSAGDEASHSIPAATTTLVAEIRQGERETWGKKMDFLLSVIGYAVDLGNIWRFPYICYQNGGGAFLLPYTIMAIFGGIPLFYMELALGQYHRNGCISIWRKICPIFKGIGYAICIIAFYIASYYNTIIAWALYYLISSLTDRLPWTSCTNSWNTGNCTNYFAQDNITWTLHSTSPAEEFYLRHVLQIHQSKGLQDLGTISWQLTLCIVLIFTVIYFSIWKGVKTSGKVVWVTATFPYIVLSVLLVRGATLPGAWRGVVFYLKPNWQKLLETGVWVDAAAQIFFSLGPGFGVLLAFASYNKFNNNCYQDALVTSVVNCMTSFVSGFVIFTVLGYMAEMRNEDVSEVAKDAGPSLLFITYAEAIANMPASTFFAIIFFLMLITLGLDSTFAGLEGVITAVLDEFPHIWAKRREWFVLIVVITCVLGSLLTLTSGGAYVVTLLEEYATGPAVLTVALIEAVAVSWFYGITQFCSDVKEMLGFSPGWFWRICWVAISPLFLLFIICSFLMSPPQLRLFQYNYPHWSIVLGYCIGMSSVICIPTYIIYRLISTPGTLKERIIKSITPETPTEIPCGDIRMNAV
Recorded Endpoint: Ki (nM)
Entry rule: numbers only, all in nM.

Challenge: GET /values?readout=Ki&item= CCN(CCCOc1ccc2c(c1)CN(C)CC2c1ccc(OC)cc1)CCOC (centres unmarked) [Example 40]
Response given: 9

Challenge: # get_value(readout='Ki', item= COc1ccc(C2CN(Cc3ccccc3)Cc3cc(OCCCN4CCC(F)CC4)ccc32)cc1 (centres unmarked) [Example 127] )
Response given: 5000

Challenge: Can you share its Ki? I mean this molecule: CN1Cc2cc(OCCCN3CCC(F)CC3)ccc2C(c2ccc(Sc3ccccc3)nc2)C1 (centres unmarked) [Example 191]
Response given: 69

Challenge: Consider the molecule shown here: COc1ccc(C2CN(C)Cc3cc(OC4CCN(C(C)C)CC4)ccc32)cc1 (centres unmarked) [Example 117] What is its recorded Ki?
Response given: 9

Challenge: Query: Ki; subject: COc1ccc(C2CN(C)Cc3cc(OCCCN4CCC[C@@H]4CO)ccc32)cc1 (some centres unmarked) [Example 30]
Response given: 2

Challenge: Find the recorded Ki belonging to CN1Cc2cc(OCCCN3CCOCC3)ccc2C(c2ccc([S+](C)[O-])cc2)C1 (single isomer, unassigned) [Example 165A] and report it.
Response given: 91

Challenge: // Ki lookup, key: COc1ccc(C2CN(C)Cc3cc(OCCCN4CCC(F)CC4)ccc32)cn1 (centres unmarked) [Example 193]
Response given: 5

Challenge: Fill in the blank: the reported Ki of COc1ccc(C2CN(C)Cc3cc(OC4CCNCC4)ccc32)c(F)c1 (centres unmarked) [Example 150] is ____.
Response given: 7

Challenge: I am curious: what Ki value has been reported for COc1ccc(C2CN(C)Cc3cc(OCC4CN(C5CC5)CCO4)ccc32)cc1 (mixture of isomers) [Example 259] ?
Response given: 13

Challenge: Recorded Ki for COc1ccc(C2CN(C)Cc3cc(OCCCNC4CC4)ccc32)cc1 (centres unmarked) [Example 229] , please?
Response given: 2

Challenge: Look up Ki: COc1ccc(C2CN(C)Cc3cc(C#CCCN4CCCCC4)ccc32)cc1 (centres unmarked) [Example 275]
Response given: 5

Challenge: Looking for the measured Ki of COc1ccc(C2CN(C)Cc3cc(OCCCN4CCCC(F)(F)C4)ccc32)cc1 (racemic) [Example 29] , can you help?
Response given: 14

Challenge: Looking for the measured Ki of COc1ccc(C2CN(C)Cc3c2ccc(OCCCN2CCOCC2)c3C)cc1 (centres unmarked) [Example 269] , can you help?
Response given: 23

Challenge: Any idea what Ki was measured for CN1Cc2cc(OCCCN3CCC(F)CC3)ccc2C(c2ccc(N(C)C)nc2)C1 (centres unmarked) [Example 188] ?
Response given: 37

Challenge: I'd like to know its Ki. The molecule in question is COc1ccc(C2CN(C)Cc3cc(OCCCN4CCN(Cc5cccs5)CC4)ccc32)cc1 (centres unmarked) [Example 201]
Response given: 4

Challenge: // Ki lookup, key: COc1ccc(C2CN(C)Cc3cc(C#CCCN4CCN(C(C)C)CC4)ccc32)cc1 (centres unmarked) [Example 278]
Response given: 5

Challenge: Query: Ki; subject: COc1ccc(C2CN(C)Cc3cc(OCCCN(C)c4nc5ccccc5s4)ccc32)cc1 (centres unmarked) [Example 19]
Response given: 8
